The entries below come with measured logP[b] values attached.
# method_description: log P by HPLC (OECD Guideline 117), method [b] neutral range
# Assay type: physicochemical
# condition_info: HPLC, method [b] neutral range
Keep the answer to the number alone.

Consider the reported logP[b] for these compounds:
compound	logP[b]
CCC[S+]([O-])c1nn(-c2cc([S+]([O-])CC(F)(F)F)c(C)cc2F)c(=O)n1C (centres unmarked) [Example 246]	1.95
Cc1cc(F)c(-n2ccn(C(C)(C)C)c2=O)cc1SCC(F)(F)F [Example 488]	3.63
COc1ccc(-n2nc(C(F)(F)F)n(C3CC3)c2=O)cc1SCC(F)(F)F [Example 52]	3.79
Cc1cc(F)c(-n2nc(SC(F)(F)F)n(C3CC3)c2=O)cc1[S+]([O-])CC(F)(F)F (centres unmarked) [Example 264]	2.98
CNn1c(N(C)C)nn(-c2cc(SCC(F)(F)F)c(C)cc2F)c1=O [Example 216]	2.99
Cc1cc(F)c(-n2nc([S+](C)[O-])n(C3CC3)c2=O)cc1[S+]([O-])CC(F)(F)F (centres unmarked) [Example 231]	1.58
COc1nn(-c2cc(SCC(F)(F)F)c(Br)cc2F)c(=O)n1C [Example 175]	2.98
Cc1cc(F)c(-n2nc(C(F)(F)F)n(N(C)C)c2=O)cc1[S+]([O-])CC(F)(F)F (centres unmarked) [Example 213]	3.09
Cc1cc(F)c(-n2nc(Br)n(C(C)(C)C)c2=O)cc1SCC(F)(F)F [Example 438]	4.17
Cc1cc(F)c(-n2ncoc2=O)cc1SCC(F)(F)F [Example 454]	2.83

## Task Look at this compound and give its reported logP[b]. CCC(C)Oc1nn(-c2cc([S+]([O-])CC(F)(F)F)c(C)cc2F)c(=O)n1C1CC1 (centres unmarked) [Example 141]
## Result 3.12

## Task logP[b] for Cc1cc(F)c(-n2nc(CCOC(C)C)n(C3CC3)c2=O)cc1SCC(F)(F)F [Example 359] ?
## Result 3.66

## Task Requested read-out: logP[b]. Entry: Cc1cc(F)c(-n2nc([S+]([O-])C(C)C)n(C)c2=O)cc1[S+]([O-])CC(F)(F)F (centres unmarked) [Example 245]
## Result 1.90

## Task Name the reported logP[b] value associated with the compound COc1nn(-c2cc(SCC(F)(F)F)c(F)cc2F)c(=O)n1C1CC1 [Example 171]
## Result 2.92

## Task GET /values?readout=logP[b]&item= CCC[S+]([O-])c1nn(-c2cc([S+]([O-])CC(F)(F)F)c(C)cc2F)c(=O)n1C1CC1 (centres unmarked) [Example 237]
## Result 2.08

## Task Would you mind telling me what logP[b] value was observed for C=CCSc1nn(-c2cc(SCC(F)(F)F)c(C)cc2F)c(=O)n1C1CC1 [Example 425] ?
## Result 4.01

## Task Give the measured logP[b] of Cc1cc(F)c(-n2nc([S+](C)[O-])n(C)c2=O)cc1[S+]([O-])CC(F)(F)F (centres unmarked) [Example 233] .
## Result 1.44

====

# method_description: log P by HPLC (OECD Guideline 117), method [b] neutral range
# Format: physicochemical
# condition_info: HPLC, method [b] neutral range
Please use Fulfilled whenever logP[b] is not below 3, and Not fulfilled whenever it is.

compound	assigned_class
CCOC1=CC(=O)N(c2cc(SCC(F)(F)F)c(C)cc2F)C1	Fulfilled
Cc1cc(F)c(-n2nc(C3CCCCC3)n(C3CC3)c2=O)cc1[S+]([O-])CC(F)(F)F (centres unmarked)	Fulfilled
Cc1ccc(-n2nc(OCC3CC3)n(C)c2=O)cc1SCC(F)(F)F	Fulfilled
Cc1cc(F)c(-n2nc(-c3ccncc3)oc2=O)cc1SCC(F)(F)F	Fulfilled
Cc1cc(F)c(-n2nc(S(C)(=O)=O)n(C3CC3)c2=O)cc1[S+]([O-])CC(F)(F)F (centres unmarked)	Not fulfilled
Cc1cc(C)c([S+]([O-])CC(F)(F)F)cc1-n1nnn(C)c1=O (racemic)	Not fulfilled
CNn1cnn(-c2cc(SCC(F)(F)F)c(C)cc2F)c1=O	Not fulfilled

Below: the item to evaluate.
## Task In plain terms: is recorded logP[b] at least 3 for Cc1cc(F)c(-n2nnn(CC(F)(F)F)c2=O)cc1[S+]([O-])CC(F)(F)F (racemic) ?
## Result Not fulfilled

====

# method_description: log P by HPLC (OECD Guideline 117), method [a] acidic range
# Format: physicochemical
# condition_info: HPLC, method [a] acidic range
Record true (1) whenever logP[a] is at 4 or higher; record false (0) when lower.

Recorded results for 5 molecules are shown here.
molecule	assigned_class
COc1nn(-c2ccc(C)c(SCC(F)(F)F)c2)c(=O)n1C1CC1	false (0)
Cc1cc(F)c(-n2ccn(C(C)(C)C)c2=O)cc1SCC(F)(F)F	false (0)
Cc1cc(F)c(-n2nc(Br)n(C(C)(C)C)c2=O)cc1[S+]([O-])CC(F)(F)F (centres unmarked)	false (0)
Cc1cc(F)c(-n2nc(OC(C)C)n(C3CC3)c2=O)cc1[S+]([O-])CC(F)(F)F (centres unmarked)	false (0)
CCCOc1nn(-c2cc([S+]([O-])CC(F)(F)F)c(C)cc2F)c(=O)n1C (centres unmarked)	false (0)

## Task Identify whether the reported logP[a] of the following molecule is 4 or greater: `Cc1cc(F)c(-n2nc(C3CC3)n(C(C)C)c2=S)cc1SCC(F)(F)F`
## Result true (1)

## Task API: above_or_equal(metric=logP[a], cutoff=4) for item `COC1=CC(=O)N(c2cc(SCC(F)(F)F)c(C)cc2Cl)C1`
## Result false (0)

## Task Form field: logP[a] at least 4? Entry: Cc1cc(F)c(-n2ncn(C(C)(C)C)c2=O)cc1[S+]([O-])CC(F)(F)F (centres unmarked)
## Result false (0)

## Task Answer whether logP[a] of `Cc1cc(Cl)c(-n2nc(OCC(C)(C)C)n(C3CC3)c2=O)cc1SCC(F)(F)F` is greater than or equal to 4.
## Result true (1)

## Task State whether the measured logP[a] reaches 4, counting equality as reaching it, for CCn1c(OCC(F)(F)F)nn(-c2cc([S+]([O-])CC(F)(F)F)c(C)cc2F)c1=O (centres unmarked)
## Result false (0)

## Task # check: logP[a] of `CCn1c(Cl)nn(-c2cc(SCC(F)(F)F)c(C)cc2F)c1=O` is greater than or equal to 4
## Result false (0)

## Task Threshold query (logP[a] >= 4) on `CCCCOc1nn(-c2ccc(C)c(SCC(F)(F)F)c2)c(=O)n1C1CC1`
## Result true (1)

## Task Hello, I need to know if CCCSc1nn(-c2cc(SCC(F)(F)F)c(C)cc2F)c(=O)n1CC [Example 288] has measured logP[a] not below 4. Thanks!
## Result false (0)

## Task Check this molecule for logP[a] at or above 4: Cc1cc(F)c(-n2ncn(Cc3ccccc3)c2=O)cc1[S+]([O-])CC(F)(F)F (centres unmarked)
## Result false (0)

## Task Is logP[a] for `Cc1cc(F)c(-n2ncn(-c3ccc(F)cc3)c2=O)cc1SCC(F)(F)F` at or above 4?
## Result false (0)

## Task Could you verify whether the entry Cc1cc(F)c(N2CC(OC(C)C)=CC2=O)cc1[S+]([O-])CC(F)(F)F (centres unmarked) shows logP[a] of no less than 4?
## Result false (0)

## Task Given the entry `CCn1c(SC)nn(-c2cc(SCC(F)(F)F)c(C)cc2F)c1=O` , answer whether its logP[a] meets or surpasses 4.
## Result false (0)

====

chromatographic logP values by entry
# method_description: log P by HPLC (OECD Guideline 117), method [a] acidic range
# Format: physicochemical
# condition_info: reversed-phase C18 HPLC column, pH 2.7, HPLC method [a], acidic range; read-out: logP[a]
Please reply with the value in numeric form only.

Here's what some known entries look like.
compound	value_kind	assay_value
CCn1ccn(-c2cc(SCC(F)(F)F)c(C)cc2F)c1=O	chromatographic logP	2.84
Cc1nn(-c2cc([S+]([O-])CC(F)(F)F)c(C)cc2F)c(=O)o1 (stereo not drawn)	chromatographic logP	1.99
COc1nn(-c2ccc(C(F)(F)F)c(SCC(F)(F)F)c2)c(=O)n1C	chromatographic logP	3.74
COC1=CC(=O)N(c2cc([S+]([O-])CC(F)(F)F)c(C)cc2F)C1 (stereo not drawn)	chromatographic logP	1.83

## Task Find the recorded chromatographic logP belonging to `Cc1cc(F)c(-n2nc(C)n(C)c2=O)cc1SCC(F)(F)F` and report it.
## Result 2.42

## Task Recorded chromatographic logP of Cc1cc(F)c(-n2nc(C)n(C)c2=O)cc1[S+]([O-])CC(F)(F)F (stereo not drawn) , please.
## Result 1.57
